# assayed.target: CFTR (Homo sapiens)
# Sequence (P13569 with tags, fused parts or gaps DEL508-508): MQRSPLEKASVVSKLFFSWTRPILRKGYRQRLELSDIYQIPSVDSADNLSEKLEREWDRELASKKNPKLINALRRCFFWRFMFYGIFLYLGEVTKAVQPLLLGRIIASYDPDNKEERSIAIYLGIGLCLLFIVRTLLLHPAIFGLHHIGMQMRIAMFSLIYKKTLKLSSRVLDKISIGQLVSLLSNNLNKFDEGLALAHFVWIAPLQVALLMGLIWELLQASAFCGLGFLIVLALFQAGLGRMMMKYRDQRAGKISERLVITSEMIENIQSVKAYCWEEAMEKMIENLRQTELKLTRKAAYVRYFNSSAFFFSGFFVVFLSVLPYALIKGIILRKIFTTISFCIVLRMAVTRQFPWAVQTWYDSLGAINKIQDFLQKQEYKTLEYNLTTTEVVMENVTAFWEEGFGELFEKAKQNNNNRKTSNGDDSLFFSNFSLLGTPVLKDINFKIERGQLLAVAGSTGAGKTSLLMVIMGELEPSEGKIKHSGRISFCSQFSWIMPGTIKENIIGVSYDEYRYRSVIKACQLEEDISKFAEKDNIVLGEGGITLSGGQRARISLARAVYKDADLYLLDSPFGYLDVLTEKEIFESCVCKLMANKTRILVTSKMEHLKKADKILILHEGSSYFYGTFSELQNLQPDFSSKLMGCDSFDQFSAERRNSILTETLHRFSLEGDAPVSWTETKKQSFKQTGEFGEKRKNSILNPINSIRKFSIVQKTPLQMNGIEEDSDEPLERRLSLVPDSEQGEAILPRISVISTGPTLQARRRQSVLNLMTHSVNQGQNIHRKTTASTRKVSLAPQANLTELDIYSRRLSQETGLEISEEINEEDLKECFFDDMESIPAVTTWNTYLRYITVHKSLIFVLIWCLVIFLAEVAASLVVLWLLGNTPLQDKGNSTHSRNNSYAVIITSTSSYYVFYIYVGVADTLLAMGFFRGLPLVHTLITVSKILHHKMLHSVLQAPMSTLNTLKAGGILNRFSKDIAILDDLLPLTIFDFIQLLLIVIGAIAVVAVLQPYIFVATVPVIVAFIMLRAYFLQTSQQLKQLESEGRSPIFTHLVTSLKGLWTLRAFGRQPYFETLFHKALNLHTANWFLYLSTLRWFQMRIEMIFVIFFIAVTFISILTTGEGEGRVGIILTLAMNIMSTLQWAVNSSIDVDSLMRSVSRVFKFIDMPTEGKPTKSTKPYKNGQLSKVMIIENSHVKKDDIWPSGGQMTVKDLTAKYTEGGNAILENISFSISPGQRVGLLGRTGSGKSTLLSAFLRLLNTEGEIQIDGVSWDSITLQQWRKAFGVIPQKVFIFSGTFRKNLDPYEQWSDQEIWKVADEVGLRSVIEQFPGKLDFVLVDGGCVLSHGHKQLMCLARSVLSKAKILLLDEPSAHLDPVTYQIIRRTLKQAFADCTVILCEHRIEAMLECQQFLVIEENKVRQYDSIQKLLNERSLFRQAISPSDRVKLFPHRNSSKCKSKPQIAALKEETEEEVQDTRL
# test.details: Membrane potential dye, Enteroid Assay A
# Format: cell-based
# study.conditions: Table 6; human enteroid cells, 18-24 hours; acute 10 μM forskolin and 300 nM ivacaftor; read-out: Ent. A EC50
# maps each entry to its EC50
experimental.readout: EC50

1) Cc1cccc(C)c1-c1cc2nc(n1)NS(=O)(=O)c1cccc(c1)C(=O)N(Cc1ccc(P(C)(C)=O)cc1)[C@H](CC(C)C)CO2 [Compound 88]
1000 to 3000 nM
2) Cc1cccc(C)c1-c1cc2nc(n1)NS(=O)(=O)c1cccc(c1)C(=O)N(Cc1ccc(N3CCN(C)CC3)nc1)[C@H](CC(C)C)CO2 [Compound 854]
< 1000 nM
3) Cc1cccc(C)c1-c1cc2nc(n1)NS(=O)(=O)c1cccc(c1)C(=O)N(C)CC(c1ccc(C3CC3)cc1)O2 (stereo not drawn) [Compound 674]
< 1000 nM
4) Cc1cccc(C)c1-c1cc2nc(n1)NS(=O)(=O)c1cccc(c1)C(=O)N(CC1CCOCC1)[C@H](CC(C)C)CO2 [Compound 352]
< 1000 nM
5) COc1ccc(CN2C(=O)c3cccc(c3)S(=O)(=O)Nc3nc(cc(-c4c(C)cccc4C)n3)OC[C@H]2CC(C)C)cc1 [Compound 347]
< 1000 nM
6) Cc1cccc(C)c1-c1cc2nc(n1)NS(=O)(=O)c1cccc(c1)C(=O)N(C)[C@H](CC1CCCCC1)O2 [Compound 1193]
< 1000 nM
7) Cc1cccc(C)c1-c1cc2nc(n1)NS(=O)(=O)c1cccc(c1)C(=O)N(Cc1ccc(=O)[nH]c1)[C@H](CC(C)C)CO2 [Compound 1109]
1000 to 3000 nM
8) Cc1cccc(C)c1-c1cc2nc(n1)NS(=O)(=O)c1cccc(c1)C(=O)N(C)CC(CN(CCC(C)(C)C)CCC(C)(C)C)O2 (stereo not drawn) [Compound 98]
< 1000 nM
9) Cc1cccc(C)c1-c1cc2nc(n1)NS(=O)(=O)c1cccc(c1)C(=O)N(CCC(C)C)C(CCC1(C(F)(F)F)CC1)CO2 (stereo not drawn) [Compound 688]
< 1000 nM
10) Cc1cccc(C)c1-c1cc2nc(n1)NS(=O)(=O)c1cccc(c1)CN(CCC(C)(C)C)[C@H](CC(C)C)CO2 [Compound 1043]
< 1000 nM
11) Cc1cccc(C)c1-c1cc2nc(n1)NS(=O)(=O)c1cccc(c1)C(=O)N(CCN1CCOCC1)[C@H](CC(C)C)CO2 [Compound 1108]
< 1000 nM
12) Cc1cccc(C)c1-c1cc2nc(n1)NS(=O)(=O)c1cccc(c1)C(=O)N(C)CC(c1ccc(-c3ccc(C(C)(C)C)cc3)cn1)O2 (stereo not drawn) [Compound 511]
< 1000 nM
